# experimentalParameters: 318.5 K; Liquid; Gas Saturation Method
Items are presented alongside their recorded vapor or sublimation pressure.
Unit kPa implied. Number only.

# count of solved cases: 3
>  <molecule>
CCCOC(=O)CC(=O)OCCC [dipropyl 1,3-propanedioate]

>  <measurementName>
vapor or sublimation pressure

>  <experimentalValue>
0.0296

$$$$
>  <molecule>
CCOC(=O)CCCC(=O)OCC [diethyl glutarate]

>  <measurementName>
vapor or sublimation pressure

>  <experimentalValue>
0.02

$$$$
>  <molecule>
CCCOC(=O)CCCC(=O)OCCC

>  <measurementName>
vapor or sublimation pressure

>  <experimentalValue>
0.00444

$$$$

Attention now turns to another entry.
Which vapor or sublimation pressure is reported for this molecule? CCCOC(=O)CCC(=O)OCCC
0.0111
